Where do the numbers come from? From a melting point compilation (Tetko et al.; mined from patent text by program, amines drawn as free bases though some values may be those of a salt).

Below, each of the molecules is paired with its reported melting point value.

Here's what some known entries look like.
| molecule | melting point |
| --- | --- |
| CN1C(=O)CCC2(C)c3ccc(-c4cccs4)cc3CCC12 (stereo unspecified) | 193 to 195 °C |
| CCC1(c2ccnc(OC)c2CO)OCCCO1 | 79 °C |
| COC(=O)C1=CCC(=NON)C=C1 | 170 to 172 °C |
| OCc1c(CO)c(-c2ccccc2)n2c1Cc1ccccc1-2 | 169 to 171 °C |
| O=C(O)c1cc2cc(C3CCCCC3)ccc2nn1 | 159 to 161 °C |
| Cc1nc(N2CCN(Cc3ccccc3)C2=O)sc1C(=O)NCc1ccccc1 | 169 to 171 °C |
| O=C(Nc1cccc2ccnnc12)c1c(Cl)cccc1Cl | 226 to 228 °C |
| CC1CC2(C)C(CCC3C2CCC2(C)C(OCc4ccccc4)CCC32)CC1=O (stereo unspecified) | 116 to 120 °C |

Req: What value of melting point has been reported for the following molecule? Cc1ccc(-c2nn3cccnc3c2CC(=O)O)cc1
Resp: 170 to 171 °C

Req: Same question, O=S(=O)(c1ccc(O)cc1)c1ccc2cc(Br)ccc2c1 this time
Resp: 178 to 180 °C

Req: Same question, COc1ccc(-c2c3c(cc4ccc(O)cc24)-c2ccc(O)cc2CO3)cc1OC this time
Resp: 245 to 248 °C

====

Below, each of the molecules is paired with its reported melting point value.

Here's what some known entries look like.
| molecule | obs.value |
| --- | --- |
| CC(=O)/C=C/c1cc(F)c2ncc(C(=O)NCc3ccc(Cl)cc3)c(O)c2c1 | 286 to 289 °C |
| O=C1N(C(c2ccccc2)c2ccccc2)c2ccccc2C12COc1cc3c(cc12)CCCO3 (stereo not given) | 208 to 211 °C |
| CCOC(=O)Cc1c2ccccc2n2c(-c3cccs3)nccc12 | 94 to 95 °C |
| Clc1ccc(C2CCc3cc(Cl)ccc3O2)cc1 (stereo not given) | 99 to 100 °C |

Req: What value of melting point has been reported for the following molecule? Cc1ccc(S(=O)(=O)OCC2Cc3cccc([N+](=O)[O-])c3O2)cc1 (stereo not given)
Resp: 129 to 131 °C

====

readout.label: melting point

Here's what some known entries look like.
| molecule | obs.value |
| --- | --- |
| Cc1ccc(N2CCOCC2)c(NC(N)=S)c1 | 181 to 182 °C |
| Cn1cc(C(=O)CCC(=O)O)nc1-c1ccccc1 | 191 to 192 °C |
| COc1ccc2c(CNCCCCCCCCCCC(=O)O)cc3cc4c(cc3c2c1)OCO4 | 146 to 148 °C |

Req: What value of melting point has been reported for the following molecule? O=C(OCC1CCC(COC(=O)c2ccccc2)CC1)c1ccccc1 (stereo unspecified)
Resp: 111 to 113 °C

Req: Same question, CC(C)n1cc(C(=O)C(F)(F)F)c2ccc([N+](=O)[O-])cc21 this time
Resp: 143 to 145 °C

Req: Same question, Cc1cccc(C)c1-n1c(C)c(C#N)c(=O)[nH]c1=O this time
Resp: 302 to 303 °C

====

Below, each of the molecules is paired with its reported melting point value.

| molecule | readout.label | obs.value |
| --- | --- | --- |
| CC(C)CN(CC(C)C)c1ccc(NC(=O)N(C[C@H]2CC[C@H](CN(C(=O)Nc3ccc(N(CC(C)C)CC(C)C)cc3)C3CCCCC3)CC2)C2CCCCC2)cc1 | melting point | 140 to 142 °C |
| CN1C(=O)C(C)(Cc2ccccc2)N(C)C(=O)C1C1NC(=O)c2cccc(F)c21 (stereo not given) | melting point | 183 to 185 °C |
| CS(=O)(=O)c1ccc(-n2cnc3ccc(-c4nnc(CC(F)(F)F)o4)cc32)cc1 | melting point | 229 to 232 °C |
| Nc1ccc(S(=O)(=O)Nc2cc(N)cc(N)c2)cc1 | melting point | 188 to 190 °C |
| COC(=O)c1ccc2c(c1)Nc1nccnc1S2 | melting point | 265 to 268 °C |
| COc1cc2cc3ncc(C#N)c(Nc4ccc(F)c(Cl)c4)c3cc2cc1OC | melting point | > 280 °C |

Pending molecule:
Req: What value of melting point has been reported for the following molecule? O=C1NC=C(C(=O)O)CN1
Resp: 139 to 141 °C
